viability, T/C for assorted compounds
Tested on: HSSY-II complex spheroid growth, percent test/control
Assay: Anticancer human tumor HSSY-II cell line growth inhibition [Asc];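 further: spheroids exposed to drug for 7 days before reading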
Details: second compound 3 µM; first compound 0.1 µM; hits give low values
Respond with the bare value in %.

Cn1ncnc1[C@H]1c2n[nH]c(=O)c3cc(F)cc(c23)N[C@@H]1c1ccc(F)cc1 + CCN1C(C(=O)NC23CCC(C(=O)O)(CC2)CC3)C(c2cccc(Cl)c2F)C2(C(=O)Nc3cc(Cl)ccc32)C12CCCCC2: 4.41
C#Cc1c(F)ccc2cc(O)cc(-c3ncc4c(N5CC6CCC(C5)N6)nc(OCC56CCCN5CC(F)C6)nc4c3F)c12 (stereo not given) + CCN1C(C(=O)NC23CCC(C(=O)O)(CC2)CC3)C(c2cccc(Cl)c2F)C2(C(=O)Nc3cc(Cl)ccc32)C12CCCCC2: 2.33
NC1CCC(NC2CC2c2ccccc2)CC1 (stereo not given) + CCN1C(C(=O)NC23CCC(C(=O)O)(CC2)CC3)C(c2cccc(Cl)c2F)C2(C(=O)Nc3cc(Cl)ccc32)C12CCCCC2: 2.12

Request the reported viability, T/C associated with C=C(F)C(=O)N1CCN(c2nc(OCC3CCCN3C)nc3c2CCN(c2cccc4cccc(Cl)c24)C3)CC1CC#N (stereo not given) + CCN1C(C(=O)NC23CCC(C(=O)O)(CC2)CC3)C(c2cccc(Cl)c2F)C2(C(=O)Nc3cc(Cl)ccc32)C12CCCCC2 2.72

COc1c(OCCCN2CCOCC2)ccc2c3n(c(=NC(=O)c4cnc(N)nc4)nc12)CCN3 + CCN1C(C(=O)NC23CCC(C(=O)O)(CC2)CC3)C(c2cccc(Cl)c2F)C2(C(=O)Nc3cc(Cl)ccc32)C12CCCCC2 ? 0.45
